Target: T1, VV B5 monomer protein (Wyeth Vaccinia strain B5 with C-terminal AVI tag and HIS6 tag) (Vaccinia virus, Wyeth strain, UniProt O57254 18-279)
T1 construct: also called B5 protein; VV B5 protein
Test: BLI (Octet), antibody on AHC sensor, B5 monomer analyte

{"columns": ["BINDER", "koff, s⁻¹"],
 "data": [
  ["A048-H2L3 (antibody, V domains shown) VH: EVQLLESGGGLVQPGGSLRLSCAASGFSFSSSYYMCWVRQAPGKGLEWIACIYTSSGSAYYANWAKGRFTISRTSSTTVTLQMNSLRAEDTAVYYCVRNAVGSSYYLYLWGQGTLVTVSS VL: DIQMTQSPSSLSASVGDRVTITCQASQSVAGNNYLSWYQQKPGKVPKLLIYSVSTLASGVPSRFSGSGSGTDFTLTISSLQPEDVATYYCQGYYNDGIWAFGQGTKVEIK", 0.000759],
  ["A048 parental (antibody, V domains shown, also called A048 rabbit parental antibody; A048 parental anti-B5 hIgG1) VH: QEQLEESGGGLVKPEGSLTLTCTASGFSFSSSYYMCWVRQAPGRGLEWIACIYTSSGSAYYANWAKGRFTISRTSSTTVTLQMTRLTAADTATYFCVRNAVGSSYYLYLWGPGTLVTVSS VL: AQVLTQTPSPVSAAVGGTVTISCQASQSVAGNNYLSWYQQKPGQPPNLLIYSVSTLASGVPSRFKGSGSGTQFTLTISDLECDDAATYYCQGYYNDGIWAFGGGTEVVVK", 0.000601],
  ["A048-H1L4 (antibody, V domains shown) VH: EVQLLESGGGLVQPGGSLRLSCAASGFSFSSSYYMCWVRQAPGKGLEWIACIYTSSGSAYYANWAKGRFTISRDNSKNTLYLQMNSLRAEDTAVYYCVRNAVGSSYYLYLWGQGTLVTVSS VL: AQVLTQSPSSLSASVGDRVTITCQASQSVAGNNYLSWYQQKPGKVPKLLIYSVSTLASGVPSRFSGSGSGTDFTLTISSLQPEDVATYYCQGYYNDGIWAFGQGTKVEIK", 0.000953],
  ["A048-H4L3 (antibody, V domains shown) VH: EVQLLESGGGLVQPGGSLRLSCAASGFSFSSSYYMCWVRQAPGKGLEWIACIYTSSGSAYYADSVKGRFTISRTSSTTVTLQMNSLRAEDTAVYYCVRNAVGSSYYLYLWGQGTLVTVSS VL: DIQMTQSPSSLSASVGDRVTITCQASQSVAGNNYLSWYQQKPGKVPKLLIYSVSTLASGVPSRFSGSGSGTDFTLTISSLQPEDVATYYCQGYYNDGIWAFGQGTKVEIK", 0.000476],
  ["A048-H4L4 (antibody, V domains shown) VH: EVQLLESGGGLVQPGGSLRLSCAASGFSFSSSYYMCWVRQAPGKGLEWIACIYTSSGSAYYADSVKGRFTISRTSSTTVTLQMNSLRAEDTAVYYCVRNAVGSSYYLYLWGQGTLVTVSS VL: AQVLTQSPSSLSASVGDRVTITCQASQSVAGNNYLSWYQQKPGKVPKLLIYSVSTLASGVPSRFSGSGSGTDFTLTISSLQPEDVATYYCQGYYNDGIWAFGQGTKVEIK", 0.000549]
]}
